tested on: human beta-coronavirus OC43; experiment: OC43 coronavirus antiviral assay in HeLa cells (cytopathic effect, cell-titer-glo); format: cell-based; conditions: Betacoronavirus 1, OC43, HeLa, 144 h, 6 days at 33° C., read-out: EC50 (class)
Recorded Metric: EC50

Specify EC50 for `CC(C)(C)[C@H](NC(=O)C(F)(F)F)C(=O)N1C[C@H]2[C@@H]([C@H]1C(=O)N[C@H](C#N)C[C@@H]1CCCNC1=O)[C@H]1C=C[C@@H]2C1` and stop.
< 0.1 µM

Specify EC50 for `CC(C)(C)[C@H](NC(=O)C(F)(F)F)C(=O)N1C[C@H]2[C@@H]([C@H]1C(=O)N[C@H](C#N)C[C@@H]1CCNC1=O)[C@H]1C=C[C@@H]2C1(F)F` and stop.
< 0.1 µM

Specify EC50 for `CC(C)(C)[C@H](NC(=O)C(F)(F)Cl)C(=O)N1C[C@@H]2[C@@H]3CC[C@@H](C3)[C@@H]2[C@H]1C(=O)N[C@H](C#N)C[C@@H]1CCNC1=O` and stop.
< 0.1 µM

Specify EC50 for Cc1cn(C(C(=O)N2C[C@H]3[C@@H]([C@H]2C(=O)N[C@H](C#N)C[C@@H]2CCNC2=O)[C@H]2C=C[C@@H]3C2)C(C)(C)C)nn1 (some centres unmarked) and stop.
1 to 10 µM

Specify EC50 for CC(C)(C)[C@H](NC(=O)C(F)(F)F)C(=O)N1C[C@@H]2[C@H]3CC[C@H](CC3)[C@@H]2[C@H]1C(=O)N[C@H](C#N)C[C@@H]1CCNC1=O (mixture of isomers) and stop.
0.1 to 1 µM

###

Recorded Metric: IC50

Recall the reported IC50 of CC(C)(C)[C@H](NC(=O)C(F)(F)F)C(=O)N1C[C@@H]2[C@@H]3CC[C@@H](C3)[C@@H]2[C@H]1C(=O)N[C@H](C#N)CC1Cn2nccc2NC1=O (relative stereo) [Compound 17a] on human cathepsin L (Homo sapiens, UniProt P07711) and write it down.
Sequence (P07711 114-333): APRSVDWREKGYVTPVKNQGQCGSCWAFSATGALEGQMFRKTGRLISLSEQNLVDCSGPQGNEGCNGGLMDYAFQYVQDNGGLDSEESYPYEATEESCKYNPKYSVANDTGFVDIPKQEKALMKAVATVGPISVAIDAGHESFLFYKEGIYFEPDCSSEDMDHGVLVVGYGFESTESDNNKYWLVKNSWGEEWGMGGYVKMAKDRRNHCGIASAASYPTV
≥ 10 µM

Recall the reported IC50 of CC(C)(C)[C@H](NC(=O)C(F)(F)F)C(=O)N1C[C@H]2[C@@H]([C@H]1C(=O)N[C@H](C#N)C[C@@H]1CCNC1=O)[C@H]1C=C[C@@H]2C1F (stereo in doubt) on human cathepsin L (Homo sapiens, UniProt P07711) and write it down.
≥ 10 µM

Recall the reported IC50 of `CC(C)(C)[C@H](OC1CC1)C(=O)N1C[C@H]2[C@@H]([C@H]1C(=O)N[C@H](C#N)C[C@@H]1CCNC1=O)[C@H]1C=C[C@@H]2C1` on human cathepsin L (Homo sapiens, UniProt P07711) and write it down.
≥ 10 µM

###

system: human beta-coronavirus OC43; test: OC43 coronavirus antiviral assay in HeLa cells (cytopathic effect, cell-titer-glo); type: cell-based; details: Betacoronavirus 1, OC43, HeLa, 144 h, 6 days at 33° C., read-out: EC50 (class)
pEC50: −log10 of the molar value.
Recorded Metric: pEC50

Specify pEC50 for `CC(F)(F)C(=O)N[C@H](C(=O)N1C[C@H]2[C@@H]([C@H]1C(=O)N[C@H](C#N)C[C@@H]1CCNC1=O)[C@H]1C=C[C@@H]2C1)C(C)(C)C` and stop.
> 7.00

Specify pEC50 for `C[C@@H](OC(F)F)[C@H](NC(=O)C(F)(F)F)C(=O)N1C[C@H]2[C@@H]([C@H]1C(=O)N[C@H](C#N)C[C@@H]1CCNC1=O)[C@H]1C=C[C@@H]2C1` and stop.
> 7.00

Specify pEC50 for `[2H][C@@H]1[C@H]([2H])[C@@H]2C[C@H]1[C@H]1[C@@H]2CN(C(=O)[C@@H](NC(=O)C(F)(F)F)C(C)(C)C)[C@@H]1C(=O)N[C@H](C#N)C[C@@H]1CCNC1=O` and stop.
> 7.00

Specify pEC50 for `CC(C)(C)[C@H](NC(=O)C(F)(F)F)C(=O)N1C[C@H]2[C@@H]([C@H]1C(=O)N[C@H](C#N)C[C@@H]1CCNC1=O)[C@H]1CC[C@@H]2C12CC2` and stop.
> 7.00

Specify pEC50 for `N#C[C@H](C[C@@H]1CCNC1=O)NC(=O)[C@@H]1[C@@H]2[C@H](CN1C(=O)c1cc3c(Cl)cc(Cl)cc3[nH]1)[C@@H]1C=C[C@H]2C1` and stop.
6.00 to 7.00

Specify pEC50 for `CO[C@](C)(C(=O)N[C@H](C(=O)N1C[C@H]2[C@@H]([C@H]1C(=O)N[C@H](C#N)C[C@@H]1CCNC1=O)[C@H]1C=C[C@@H]2C1)C(C)(C)C)C(F)(F)F` and stop.
5.00 to 6.00

Specify pEC50 for `C=CC1([C@H](NC(=O)C(F)(F)F)C(=O)N2C[C@H]3[C@@H]([C@H]2C(=O)N[C@H](C#N)C[C@@H]2CCNC2=O)[C@H]2C=C[C@@H]3C2)CCC1` and stop.
> 7.00

Specify pEC50 for `CC(C)(F)C(=O)N[C@H](C(=O)N1C[C@H]2[C@@H]([C@H]1C(=O)N[C@H](C#N)C[C@@H]1CCNC1=O)[C@H]1C=C[C@@H]2C1)C(C)(C)C` and stop.
> 7.00

Specify pEC50 for `CC(C)(C)[C@H](NC(=O)C(F)(F)C(F)(F)F)C(=O)N1C[C@@H]2[C@H]3C[C@@H]([C@@H]2[C@H]1C(=O)N[C@H](C#N)C[C@@H]1OCCNC1=O)[C@H](F)C3` and stop.
> 7.00

Specify pEC50 for `CC(C)(C)[C@H](NC(=O)C1COC1)C(=O)N1C[C@H]2[C@@H]([C@H]1C(=O)N[C@H](C#N)C[C@@H]1CCNC1=O)[C@H]1C=C[C@@H]2C1` and stop.
6.00 to 7.00

###

target: HRV3C (Human rhinovirus 14, UniProt P03303); construct: 3CLpro and HRV3C was added using a Multidrop Combi; experiment: biochemical; parameters: species or system HRV; details: HRV3C, 30 mins preincubation, SAMDI-MS; read-out: HRV IC50 (bound)
Sequence (P03303 1538-1719): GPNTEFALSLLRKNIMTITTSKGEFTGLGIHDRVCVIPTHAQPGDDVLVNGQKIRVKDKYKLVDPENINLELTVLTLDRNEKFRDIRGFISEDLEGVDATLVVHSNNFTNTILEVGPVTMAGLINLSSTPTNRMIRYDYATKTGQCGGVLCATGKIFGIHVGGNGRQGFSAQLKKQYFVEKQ
Recorded Metric: IC50

Specify IC50 for CC(C)(C)[C@H](NC(=O)C(F)(F)F)C(=O)N1C[C@H]2[C@@H]([C@H]1C(=O)N[C@H](C#N)C[C@@H]1CCNC1=O)[C@H]1C=C[C@@H]2C1F (stereo in doubt) and stop.
> 0.5 µM

Specify IC50 for CC(C)(C)[C@H](NC(=O)C(F)(F)F)C(=O)N1C[C@H]2[C@@H]([C@H]1C(=O)N[C@H](C#N)C[C@@H]1CCNC1=O)[C@H]1CC[C@@H]2O1 (relative stereo) [Compound 58b] and stop.
> 10 µM

Specify IC50 for CC(C)(C)[C@H](NC(=O)C(F)(F)F)C(=O)N1C[C@@H]2[C@H]3CC[C@H](CC3)[C@@H]2[C@H]1C(=O)N[C@H](C#N)C[C@@H]1CCNC1=O [Compound 71b] and stop.
> 10 µM

###

molecular target: HRV3C (Human rhinovirus 14, UniProt P03303); construct: 3CLpro and HRV3C was added using a Multidrop Combi; experiment: biochemical; parameters: species or system HRV; details: HRV3C, 30 mins preincubation, SAMDI-MS; read-out: HRV IC50 (bound)
pIC50: −log10 of the molar value.
Recorded Metric: pIC50

Specify pIC50 for `CC(C)(C)[C@H](NC(=O)C(F)(F)C(F)(F)F)C(=O)N1C[C@@H]2[C@H]3C[C@@H]([C@@H]2[C@H]1C(=O)N[C@H](C#N)C[C@@H]1CCNC1=O)[C@H](F)C3` and stop.
< 6.30

Specify pIC50 for `CC(C)(C)[C@H](NC(=O)C(F)(F)F)C(=O)N1C[C@H]2[C@@H]([C@H]1C(=O)N[C@H](C#N)C[C@@H]1OCCNC1=O)[C@H]1C=C[C@@H]2C1` and stop.
< 6.30

Specify pIC50 for `CC(C)(C)[C@H](NC(=O)C(F)(F)F)C(=O)N1C[C@H]2[C@@H]([C@H]1C(=O)N[C@H](C#N)C[C@@H]1Oc3cccnc3NC1=O)[C@H]1C=C[C@@H]2C1` and stop.
< 6.30

Specify pIC50 for `Cc1nnc(N[C@H](C(=O)N2C[C@H]3[C@@H]([C@H]2C(=O)N[C@H](C#N)C[C@@H]2CCNC2=O)[C@H]2C=C[C@@H]3C2)C(C)(C)C)o1` and stop.
< 5.00

Specify pIC50 for CC(C)(C)[C@H](NC(=O)C(F)(F)F)C(=O)N1C[C@H]2[C@@H]([C@H]1C(=O)N[C@H](C#N)C[C@@H]1CCNC1=O)[C@H]1C=C[C@@H]2C1O (mixture of isomers) and stop.
< 5.00

Specify pIC50 for CC(C)(C)C(C(=O)N1C[C@H]2[C@@H]([C@H]1C(=O)N[C@H](C#N)C[C@@H]1CCNC1=O)[C@H]1C=C[C@@H]2C1)n1cc(C(F)(F)F)nn1 (some centres unmarked) and stop.
< 5.00

Specify pIC50 for CC(C)(C)[C@H](NC(=O)C(F)(F)F)C(=O)N1C[C@@H]2[C@@H]3CC[C@@H](C3)[C@@H]2[C@H]1C(=O)N[C@H](C#N)CC1Cn2nccc2NC1=O (relative stereo) [Compound 17a] and stop.
< 5.00

Specify pIC50 for `CC(C)(C)[C@H](NC(=O)C1(F)CC1)C(=O)N1C[C@H]2[C@@H]([C@H]1C(=O)N[C@H](C#N)C[C@@H]1CCNC1=O)[C@H]1C=C[C@@H]2C1` and stop.
< 5.00

Specify pIC50 for `C=CC(C)(C)[C@H](NC(=O)C(F)(F)F)C(=O)N1C[C@H]2[C@@H]([C@H]1C(=O)N[C@H](C#N)C[C@@H]1CCNC1=O)[C@H]1C=C[C@@H]2C1` and stop.
< 5.00

Specify pIC50 for CC(C)(C)[C@H](NC(=O)C(F)(F)F)C(=O)N1C[C@H]2[C@@H]([C@H]1C(=O)NC(C#N)CC1CCc3cnnn31)[C@H]1C=C[C@@H]2C1 (some centres unmarked) and stop.
< 5.00

Specify pIC50 for CC(C)(C)[C@H](NC(=O)C(F)(F)F)C(=O)N1C[C@H]2[C@@H]([C@H]1C(=O)N[C@H](C#N)CC1C[C@H](C(F)(F)F)NC1=O)[C@H]1C=C[C@@H]2C1 (some centres unmarked) and stop.
< 6.30

Specify pIC50 for `COCC(C)(C)[C@H](NC(=O)C(F)(F)C(F)(F)F)C(=O)N1C[C@H]2[C@@H]([C@H]1C(=O)N[C@H](C#N)C[C@@H]1CCNC1=O)[C@H]1C=C[C@@H]2C1` and stop.
< 6.30

Specify pIC50 for `CC(C)(C)[C@H](NC(=O)C1CC1)C(=O)N1C[C@H]2[C@@H]([C@H]1C(=O)N[C@H](C#N)C[C@@H]1CCNC1=O)[C@H]1C=C[C@@H]2C1` and stop.
< 5.00

Specify pIC50 for `CC1(C)NC(=O)[C@H](C[C@@H](C#N)NC(=O)[C@@H]2[C@@H]3[C@H](CN2C(=O)[C@@H](NC(=O)C(F)(F)F)C(C)(C)C)[C@@H]2C=C[C@H]3C2)O1` and stop.
< 6.30

Specify pIC50 for CC(C)(C)[C@H](NC(=O)C(F)(F)F)C(=O)N1C[C@@H]2[C@@H]([C@@H]3CC[C@H]2O3)[C@@H]1C(=O)N[C@H](C#N)C[C@@H]1CCNC1=O (relative stereo) [Compound 58a] and stop.
< 5.00

Specify pIC50 for `C[C@@H](OC(C)(C)C)[C@H](NC(=O)C(F)(F)F)C(=O)N1C[C@H]2[C@@H]([C@H]1C(=O)N[C@H](C#N)C[C@@H]1CCNC1=O)[C@H]1C=C[C@@H]2C1` and stop.
< 5.00

Specify pIC50 for `CC(C)(C)[C@H](NC(=O)C(F)(F)F)C(=O)N1C[C@@H]2[C@@H]3CC[C@@H](C3)[C@@H]2[C@H]1C(=O)N[C@H](C#N)C[C@@H]1CC2(CC2)NC1=O` and stop.
< 5.00

Specify pIC50 for `CC(C)(C)[C@H](NC(=O)C(F)F)C(=O)N1C[C@H]2[C@@H]([C@H]1C(=O)N[C@H](C#N)C[C@@H]1CCNC1=O)[C@H]1C=C[C@@H]2C1` and stop.
< 5.00

Specify pIC50 for `CC(C)(C)[C@H](NC(=O)C(F)(F)F)C(=O)N1C[C@@H]2[C@H]3C[C@@H]([C@@H]2[C@H]1C(=O)N[C@H](C#N)C[C@@H]1CCNC1=O)C(F)(F)C3` and stop.
< 5.00

Specify pIC50 for `C[C@H]1[C@H]2[C@@H]([C@@H](C(=O)N[C@H](C#N)C[C@@H]3CCNC3=O)N1C(=O)[C@@H](NC(=O)C(F)(F)F)C(C)(C)C)[C@H]1C=C[C@@H]2C1` and stop.
< 6.30
